Cited source for all entries: patent US20210380703A1

test.system: T1, Human ACVR2A (human, UniProt P27037 20-135, limits assumed); further: test concentration or dose not given here
T1 construct: also called activin receptor, type II A
T1 sequence (P27037 20-135 limits assumed): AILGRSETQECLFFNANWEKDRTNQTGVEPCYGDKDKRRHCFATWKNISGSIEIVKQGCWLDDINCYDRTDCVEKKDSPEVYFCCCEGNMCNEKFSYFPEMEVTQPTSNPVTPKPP
test.protocol: ELISA
test.readout: optical density (OD)
Just the number in OD, nothing appended.

Observe how each entry below is paired with its result.
[
  {
    "binder": "371_E05 (antibody, V domains shown, VH/VL only) VH: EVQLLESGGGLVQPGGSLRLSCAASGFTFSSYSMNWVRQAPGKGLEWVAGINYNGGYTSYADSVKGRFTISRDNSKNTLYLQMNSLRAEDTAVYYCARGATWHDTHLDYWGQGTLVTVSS VL: DIQMTQSPSSLSASVGDRVTITCRASQSIISYLNWYQQKPGKAPKLVIYAATSRASGVPSRFSGSGSGTDFTLTISSLQPEDFATYYCQQSYSSPLTFGGGTKVEIK",
    "unit.string": "OD",
    "optical density": 2.99
  },
  {
    "binder": "365_H05 (antibody, V domains shown, VH/VL only) VH: EVQLLESGGGLVQPGGSLRLSCAASGFTFSSYGMNWVRQAPGKGLEWVAGINYNGGYTSYADSVKGRFTISRDNSKNTLYLQMNSLRAEDTAVYYCARGATWHDTHLDYWGQGTLVTVSS VL: DIQMTQSPSSLSASVGDRVTITCRASQSILTYVNWYQQKPGKAPKLLIYAATSLHSGVPSRFSGSGSGTDFTLTISSLQPEDFATYYCQQSYSTPLTFGGGTKVEIK",
    "unit.string": "OD",
    "optical density": 2.1
  }
]

Lookup result for 365_B07 (antibody, V domains shown, VH/VL only) VH: EVQLLESGGGLVQPGGSLRLSCAASGFTFSSYGMHWVRQAPGKGLEWVASINYNSGYTSYADSVKGRFTISRDNSKNTLYLQMNSLRAEDTAVYYCARSANWHDTALDYWGQGTLVTVSS VL: DIQMTQSPSSLSASVGDRVTITCRASQSILTYLNWYQQKPGKAPKLLIYAATSRASGVPSRFSGSGSGTDFTLTISSLQPEDFATYYCQQSYENPLTFGGGTKVEIK ; measured optical density: 2.11

Measured optical density, 367_A05 (antibody, V domains shown, VH/VL only) VH: EVQLLESGGGLVQPGGSLRLSCAASGFTFSDYGMNWVRQAPGKGLEWVSSINYNGGYKGYADSVKGRFTISRDNSKNTLYLQMNSLRAEDTAVYYCARSANWHDTALDYWGQGTLVTVSS VL: DIQMTQSPSSLSASVGDRVTITCRASQSILSYLNWYQQKPGKAPKLVIYAVTSRASGVPSRFSGSGSGTDFTLTISSLQPEDFATYYCQQSYDSPLTFGGGTKVEIK : 2.22

Notebook: 367_F09 (antibody, V domains shown, VH/VL only) VH: EVQLLESGGGLVQPGGSLRLSCAASGFTFDSYSMHWVRQAPGKGLEWVAGINYNGGYTSYADSVKGRFTISRDNSKNTLYLQMNSLRAEDTAVYYCARGATWHDTHLDYWGQGTLVTVSS VL: DIQMTQSPSSLSASVGDRVTITCRASQSILTYLNWYQQKPGKAPKLLIYAATSLASGVPSRFSGSGSGTDFTLTISSLQPEDFATYYCQQSDSNPLTFGGGTKVEIK , optical density read as 1.79

Documented optical density of 365_G01 (antibody, V domains shown, VH/VL only) VH: EVQLLESGGGLVQPGGSLRLSCAASGFTFDSYGMNWVRQAPGKGLEWVAGINYNSGYKSYADSVKGRFTISRDNSKNTLYLQMNSLRAEDTAVYYCARSANWHDTALDYWGQGTLVTVSS VL: DIQMTQSPSSLSASVGDRVTITCRASQSILTYVNWYQQKPGKAPKLLIYATTSRASGVPSRFSGSGSGTDFTLTISSLQPEDFATYYCQQSYDSPLTFGGGTKVEIK : 2.48

Per the records, this binder ( 365_F12 (antibody, V domains shown, VH/VL only) VH: EVQLLESGGGLVQPGGSLRLSCAASGFTFSDYSMNWVRQAPGKGLEWVSGINYNGGYTSYADSVKGRFTISRDNSKNTLYLQMNSLRAEDTAVYYCARSANWHDTHLDYWGQGTLVTVSS VL: DIQMTQSPSSLSASVGDRVTITCRASQSILTYVNWYQQKPGKAPKLVIYAATSRHSGVPSRFSGSGSGTDFTLTISSLQPEDFATYYCQQSYETPLTFGGGTKVEIK ) has optical density equal to 2.91

The binder 372_H11 (antibody, V domains shown, VH/VL only) VH: EVQLLESGGGLVQPGGSLRLSCAASGFTFSSYGMHWVRQAPGKGLEWVAGINYNGGYTSYADSVKGRFTISRDNSKNTLYLQMNSLRAEDTAVYYCARGATWHDTHLDYWGQGTLVTVSS VL: DIQMTQSPSSLSASVGDRVTITCRASQSILSYVNWYQQKPGKAPKLLIYAATSRASGVPSRFSGSGSGTDFTLTISSLQPEDFATYYCQQSYENPLTFGGGTKVEIK showed optical density equal to 2.62

According to the records, this binder 365_A12 (antibody, V domains shown, VH/VL only) VH: EVQLLESGGGLVQPGGSLRLSCAASGFTFSSYGMHWVRQAPGKGLEWVAGINYNGGYTSYADSVKGRFTISRDNSKNTLYLQMNSLRAEDTAVYYCAKSANWHDTHLDYWGQGTLVTVSS VL: DIQMTQSPSSLSASVGDRVTITCRASQSILTYVNWYQQKPGKAPKLLIYAATSRHSGVPSRFSGSGSGTDFTLTISSLQPEDFATYYCQQSYENPLTFGGGTKVEIK displays optical density of 2.67

Please fill in: optical density reported for 369_H12 (antibody, V domains shown, VH/VL only) VH: EVQLLESGGGLVQPGGSLRLSCAASGFTFSSYSMNWVRQAPGKGLEWVAGINYNGGYKSYADSVKGRFTISRDNSKNTLYLQMNSLRAEDTAVYYCARGATWHDTHLDYWGQGTLVTVSS VL: DIQMTQSPSSLSASVGDRVTITCRASQSIVTYVNWYQQKPGKAPKLVIYAATSRASGVPSRFSGSGSGTDFTLTISSLQPEDFATYYCQQSYDSPLTFGGGTKVEIK = 3.46
